- Test system: HCC-2998 colon
- procedure.text: NCI tumour cell line growth inhibition, 48 h
Listing of recorded TGI by entry.

{"compound": "O=C(c1c(F)c(F)c(F)c(F)c1F)n1c(=S)n(C(=O)c2c(F)c(F)c(F)c(F)c2F)c2ccccc21", "limit.sign": ">", "TGI (µM)": 100}
{"compound": "O=C1[C@H](Cc2ccc(O)cc2)N2C(=O)CCN(C(=O)NCc3ccccc3)[C@H]2CN1Cc1cccc2ccccc12", "limit.sign": "=", "TGI (µM)": 23.2}
{"compound": "COc1cc(Nc2nc3cc(C)ccc3nc2-c2ccccc2)cc(OC)c1OC", "limit.sign": "=", "TGI (µM)": 44.2}
{"compound": "CCc1nc(N)nc(N)c1-c1ccc(N2CCOCC2)c(N=[N+]=[N-])c1", "limit.sign": ">", "TGI (µM)": 100}
{"compound": "CC(C)c1ccc2c(c1)CCC1C2CCCC1(C)NCc1ccccc1 (centres undefined)", "limit.sign": "=", "TGI (µM)": 2.01}
{"compound": "O=c1[nH]c2ccccc2c2oc3ccccc3c12", "limit.sign": ">", "TGI (µM)": 100}
{"compound": "C/C(=C\\c1csc(C)n1)[C@@H]1C[C@@H]2O[C@]2(C)CCC[C@H](C)[C@H](O)[C@@H](C)C(=O)C(C)(C)[C@@H](O)CC(=O)N1", "limit.sign": "=", "TGI (µM)": 0.000243}
{"compound": "COC(=O)c1ccc(CCC2=CC(=O)C=CC2=O)cc1", "limit.sign": "=", "TGI (µM)": 30.8}
{"compound": "CC(C)CCCC(C)C1CCC2C3CC([N+](=O)[O-])=C4CC(O)CCC4(C)C3CCC12C (centres undefined)", "limit.sign": "=", "TGI (µM)": 37.2}

###

- Tested on: LOX IMVI melanoma
- procedure.text: NCI tumour cell line growth inhibition, 48 h

{"compound": "COC(=O)c1c(C)cccc1C1CN=NC12Cc1cc(C)c(C)cc1C2=O (stereo not drawn)", "limit.sign": "=", "TGI [µM]": 67.9}
{"compound": "CCc1nc(N)nc(N)c1-c1ccc(N2CCOCC2)c(N=[N+]=[N-])c1", "limit.sign": ">", "TGI [µM]": 100}
{"compound": "CC1=C(C(=O)NNC(=O)C[N+](C)(C)C)CC(C(=O)NNC(=O)C[N+](C)(C)C)=C(C)N1", "limit.sign": ">", "TGI [µM]": 100}
{"compound": "O/N=C1/C(=C/c2ccc(OCc3ccccc3)cc2)CCCC1C(NO)c1ccc(OCc2ccccc2)cc1 (stereo not drawn)", "limit.sign": "=", "TGI [µM]": 24.5}
{"compound": "O=c1oc2ccccc2c(-c2ccc(O)cc2)c1Oc1ccccc1", "limit.sign": ">", "TGI [µM]": 31.6}
{"compound": "COc1cc(CCN)c(OC)c(OC)c1", "limit.sign": ">", "TGI [µM]": 100}
{"compound": "O=c1c2cc(Br)ccc2nc(CNc2ccccc2)n1-c1ccccc1", "limit.sign": "=", "TGI [µM]": 19.6}
{"compound": "O=C(OC1OC2COC(=O)c3cc(O)c(O)c(O)c3-c3c(cc(O)c(O)c3O)C(=O)OC3C2OC(=O)[C@@]24CC(=O)[C@@](O)(OC25C(=O)O[C@H]2[C@@H](O)CO[C@@]25O)C2(O)Oc5c(O)c(O)cc(c5C24)C(=O)OC13)c1cc(O)c(O)c(O)c1 (stereo partly drawn)", "limit.sign": "=", "TGI [µM]": 25.1}
